test system: human primary osteoblast-like cells; format: cell-based
readout: concentrations with no negative effect on cell viability

Kindly state the measured concentrations with no negative effect on cell viability obtained for RRRIKIRWY [AMP4, 9mer cationic antimicrobial peptide … from an optimized peptide library] with human primary osteoblast-like cells.
< 251 µg/mL

Record lookup: for human primary osteoblast-like cells, what concentrations with no negative effect on cell viability belongs to YRLRVKWKW [AMP1, 9mer cationic antimicrobial peptide … from an optimized peptide library] ?
< 100 µg/mL

Lab request: please report concentrations with no negative effect on cell viability under test system human primary osteoblast-like cells for RTKKWIVWI [AMP3, 9mer cationic antimicrobial peptide … from an optimized peptide library]
< 68 µg/mL

human primary osteoblast-like cells / concentrations with no negative effect on cell viability / WRKFWKYLK [AMP5, 9mer cationic antimicrobial peptide … from an optimized peptide library] : value?
< 63 µg/mL

Param readout = concentrations with no negative effect on cell viability; param system = human primary osteoblast-like cells; param query = KRRWRIWLV [AMP2, 9mer cationic antimicrobial peptide … from an optimized peptide library] ; response: value
< 267 µg/mL
